Consider the following variants; for each one, report its AIRE transcriptional activation functional score.
B1: library; numbered along this chain (parent)
chain: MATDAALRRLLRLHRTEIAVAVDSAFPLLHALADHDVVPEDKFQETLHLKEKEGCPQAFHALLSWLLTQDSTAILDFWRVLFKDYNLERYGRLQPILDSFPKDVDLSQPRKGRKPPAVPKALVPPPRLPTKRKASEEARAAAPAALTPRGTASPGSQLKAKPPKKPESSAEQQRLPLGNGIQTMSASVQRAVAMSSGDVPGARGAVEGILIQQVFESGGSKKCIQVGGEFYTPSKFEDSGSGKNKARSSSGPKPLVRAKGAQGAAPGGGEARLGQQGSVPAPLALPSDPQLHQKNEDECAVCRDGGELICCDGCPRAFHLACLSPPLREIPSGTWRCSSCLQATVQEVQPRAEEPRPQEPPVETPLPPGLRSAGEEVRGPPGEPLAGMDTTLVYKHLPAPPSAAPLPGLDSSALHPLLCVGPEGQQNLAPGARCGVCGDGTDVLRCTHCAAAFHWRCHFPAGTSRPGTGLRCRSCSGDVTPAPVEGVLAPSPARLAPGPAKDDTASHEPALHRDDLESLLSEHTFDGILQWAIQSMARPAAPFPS

variants of: B1; experiment: AIRE transcriptional activation functional score (insulin promoter-GFP; nonsense median 0, synonymous median 1) (normalised score); higher = higher AIRE activity (more reporter activation); conditions: with insulin promoter-GFP reporter in HEK293
Output: the number by itself.

Request: Note down AIRE transcriptional activation functional score recorded for L520C
Result: 0.467

Request: In one line, give reported AIRE transcriptional activation functional score of the entry S464R .
Result: 0.955

Request: Please supply the value of reported AIRE transcriptional activation functional score for the item I74E
Result: -0.548

Request: For the variant R356P , report AIRE transcriptional activation functional score.
Result: 0.873

Request: Please list AIRE transcriptional activation functional score recorded for the variant P401G
Result: 1.14

Request: Supply recorded AIRE transcriptional activation functional score for D238N here.
Result: 0.588

Request: Read the entry L418Q and write its reported AIRE transcriptional activation functional score.
Result: 1.28

Request: Specify AIRE transcriptional activation functional score for C299M and stop.
Result: 0.737

Request: Identify the reported AIRE transcriptional activation functional score for the following entry. P542L
Result: 1.07

Request: Determine its reported AIRE transcriptional activation functional score: P460K
Result: 0.952

Request: Consider the variant D502M . State its measured AIRE transcriptional activation functional score.
Result: 0.261

Request: Give recorded AIRE transcriptional activation functional score. E88L
Result: 0.861

Request: Give a short answer stating reported AIRE transcriptional activation functional score for W65G .
Result: 0.22

Request: Return the recorded AIRE transcriptional activation functional score value; entry: A138I
Result: 1.06

Request: Check the records and state AIRE transcriptional activation functional score for F230H
Result: 0.48

Request: Note AIRE transcriptional activation functional score for the variant shown: P398E
Result: 0.984

Request: Indicate its recorded AIRE transcriptional activation functional score; the variant in question is P381H
Result: 1.03

Request: Give AIRE transcriptional activation functional score for H458T
Result: 1.16

Request: Indicate the recorded AIRE transcriptional activation functional score value for this variant: P384Q
Result: 1.01

Request: Tell us which AIRE transcriptional activation functional score value is on record for Q276H
Result: 1.26

Request: Write down AIRE transcriptional activation functional score measured for item V199W
Result: 0.623

Request: Quickly give me recorded AIRE transcriptional activation functional score for V479H
Result: 1.16
